# PROTOCOL DESCRIPTION: Rat pharmacokinetics
# Assay type: in vivo, Sprague-Dawley rats
# EXPERIMENTAL SETUP: male, Sprague-Dawley, IV 1 mg/kg, plasma, read-out: T1/2z (converted)
EXPERIMENTAL READOUT: half-life (h)

[
  {
    "COMPOUND": "CC(C)c1nn([C@@H]2O[C@H](COS(N)(=O)=O)[C@@H](O)[C@H]2O)c2ncnc(N)c12 [ML471]",
    "UNITS OF MEASURE": "h",
    "RESULT VALUE": 2.22
  }
]

---

# PROTOCOL DESCRIPTION: Blood exposure in the P. falciparum infected SCID mouse model
# Type: in vivo, NODscidIL2Rγ^null mice engrafted with human RBCs
# EXPERIMENTAL SETUP: female, NODscidIL2Rγ^null, mouse, whole blood, po, 100 mg/kg, 1 x 100 mg/kg p.o., blood, read-out: Cmax (mean)
EXPERIMENTAL READOUT: Cmax (ng/mL)

[
  {
    "SMILES TEXT": "CC(C)c1nn([C@@H]2O[C@H](COS(N)(=O)=O)[C@@H](O)[C@H]2O)c2ncnc(N)c12",
    "UNITS OF MEASURE": "ng/mL",
    "RESULT VALUE": 3350
  }
]

Sourced from paper PMC11671014
